System: Mycobacterium tuberculosis
Assay: Antimycobacterial activity against Mycobacterium tuberculosis strain resistant to isoniazid (INH)
Assay type: functional
Readout Type: MIC
Entry format: amount then unit.

Consider the worked cases shown below.
[
  {
    "Compound": "O=S(=O)(c1ccc(Cl)cc1)n1cnc2c(S)ncnc21",
    "MIC": "12.5 µg/mL"
  },
  {
    "Compound": "CC(=O)Nc1ccc(S(=O)(=O)n2cnc3c(S)ncnc32)cc1",
    "MIC": "12.5 µg/mL"
  },
  {
    "Compound": "O=[N+]([O-])c1ccc(Sn2cnc3c(S)ncnc32)cc1",
    "MIC": "6.25 µg/mL"
  },
  {
    "Compound": "Nc1cccc(S(=O)(=O)n2cnc3c(S)ncnc32)c1",
    "MIC": "12.5 µg/mL"
  },
  {
    "Compound": "CO[C@H]1/C=C/O[C@@]2(C)Oc3c(C)c(O)c4c(O)c(c(/C=N/N5CCN(C)CC5)c(O)c4c3C2=O)NC(=O)/C(C)=C\\C=C\\[C@H](C)[C@H](O)[C@@H](C)[C@@H](O)[C@@H](C)[C@H](OC(C)=O)[C@@H]1C [RIFAMPIN]",
    "MIC": "0.125 µg/mL"
  }
]

Could you now look at the following compound, please?
According to the records, this compound `CN(C)S(=O)(=O)n1cnc2c(=S)[nH]cnc21` displays MIC of 6.25 µg/mL

Reference for the values: ChEMBL document CHEMBL1134115
